System: BJeLR
Assay: Modulatory profiling: Alamar Blue viability, lethal compound cotreated with death modulator (EC50, AUC)
Format: cell-based, human
Conditions: Homo sapiens, BJeLR, 48 h; cotreated with iron-chelator Lmim
pEC50: −log10 of the molar value.
Rule: Y for pEC50 not less than 6, N for anything less.

As a guide, the following entries are already answered.
> print(dat)
                      structuresmilesstring  qualitativelabel
1  N/C(=N\OC(=O)C12CC3CC(CC(C3)C1)C2)c1ccccc1                 N
2   O=C(CCl)N(c1ccc(Cl)cc1)c1c[nH]c2ccccc12                 Y

Consider now this further compound.
Does pEC50 meet or surpass 6 for N/C(Cc1ccc(Cl)cc1)=N\OC(=O)c1cccc2ccccc12 ?
N

====

Tested on: BJeLR
Assay: Modulatory profiling: Alamar Blue viability, lethal compound cotreated with death modulator (EC50, AUC)
Format: cell-based, human
Details: BJeLR cells; lethal compound cotreated with modulator Lmin/NAD+; modulatory profile value (AUC)
Reported AUC, modulator BJ.Lmin/NAD+ values for the following molecules.
// print number alone

molecule	AUC, modulator BJ.Lmin/NAD+
CCc1ccc(/C=C2/SC(=O)N(CCC(C)NCCCN3CCOCC3)C2=O)cc1 (stereo not drawn) [CIL46]	0.1825
O=P(Oc1ccccc1)(Oc1ccccc1)O[C@@H]1C=CS(=O)(=O)C1 [CIL44]	−0.04975
COc1cc([C@@H]2c3cc4c(cc3[C@H](O)[C@H]3COC(=O)[C@H]23)OCO4)cc(OC)c1OC [Podophyllotoxin]	0.1012
O=C1c2c(O)ccc(O)c2C(=O)c2c(NCCNCCO)ccc(NCCNCCO)c21 [Mitoxantrone]	0.1162
[N-]=[N+]=[N-].[Na+] [NaN3]	−0.007837
O=C(CCl)N(c1ccc(Cl)cc1)c1c[nH]c2ccccc12 [CIL75]	0.2292

Form: Entry = CC(C(NNC(=O)c1ccc(C(F)(F)F)cc1)c1ccc(Br)cc1)[N+](=O)[O-] (stereo not drawn) [CIL87] | System = BJeLR | AUC, modulator BJ.Lmin/NAD+ = ____
0.07639

Repeat with CC1=CC(C)(C)Nc2ccc(OC(=O)c3cccnc3)cc21 [CIL47]
−0.01437

====

Tested on: HT-1080
Experiment: Modulatory profiling: Alamar Blue viability, lethal compound cotreated with death modulator (EC50, AUC)
Format: cell-based
Design: unit not given beside the values
Conditions: HT-1080, modulator ATA
reportedMetric: AUC HT.ATA
// print number alone

> print(dat)
                                   compound  valueobserved
1  CC(C)C[C@H](NC(=O)[C@H](CC(C)C)NC(=O)[C@H](CC(C)C)NC(=O)OCc1ccccc1)B(O)O [MG262]         0.0332
2   COc1nn(-c2ccccc2)c(=O)c(Cl)c1Cl [CIL23]        0.01792
3  O=C(CCl)N(c1ccccc1)c1c[nH]c2ccccc12 [CIL69]      −0.005358
4    Cc1cccc(-n2ncc(Cl)c(Cl)c2=O)c1 [CIL22]        0.05908
5  N/C(=N\OC(=O)C12CC3CC(CC(C3)C1)C2)c1ccccc1 [CIL41]        0.02643

Form: Entry = COc1cccc(-n2nnnc2S(C)(=O)=O)c1 [CIL16] | System = HT-1080 | AUC HT.ATA = ____
0.003965

Repeat with COC(=O)c1[nH]c2ccc(Br)cc2c1NC(=O)CN1CCN(C2CCCCC2)CC1 [CIL71]
0.03481

Repeat with CC1=CC(C)(C)Nc2ccc(OC(=O)c3ccco3)cc21 [CIL2]
0.03084

Repeat with CC[C@@]1(O)C(=O)OCc2c1cc1n(c2=O)Cc2cc3ccccc3nc2-1 [Camptothecin]
−0.00483

Repeat with [N-]=[N+]=[N-].[Na+] [NaN3]
0.03107

Value source: patent US10947188B2
